target: ER α-glucosidase GANAB (from Pompe disease Fibroblast lysates) (Homo sapiens, UniProt Q14697); construct: Cellular homogenates of Pompe fibroblasts (1 mg mL^−1) were used as protein source for GANAB; endogenous in cells; host or cells: Pompe disease fibroblasts (homogenate); assay: fluorogenic substrate (4MU-α-D-glucopyranoside) assay on GANAB in Pompe fibroblast homogenates; format: biochemical; conditions: Table S2; 4-MU alpha glucoside substrate; read-out: IC50 on GANAB;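 also: inhibitor preincubated 30 min at 37 °C with homogenate, then GANAB activity read after 2 h with 3.0 mM fluorogenic substrate in McIlvaine buffer containing 0.1% BSA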
Sequence (Q14697 29-944): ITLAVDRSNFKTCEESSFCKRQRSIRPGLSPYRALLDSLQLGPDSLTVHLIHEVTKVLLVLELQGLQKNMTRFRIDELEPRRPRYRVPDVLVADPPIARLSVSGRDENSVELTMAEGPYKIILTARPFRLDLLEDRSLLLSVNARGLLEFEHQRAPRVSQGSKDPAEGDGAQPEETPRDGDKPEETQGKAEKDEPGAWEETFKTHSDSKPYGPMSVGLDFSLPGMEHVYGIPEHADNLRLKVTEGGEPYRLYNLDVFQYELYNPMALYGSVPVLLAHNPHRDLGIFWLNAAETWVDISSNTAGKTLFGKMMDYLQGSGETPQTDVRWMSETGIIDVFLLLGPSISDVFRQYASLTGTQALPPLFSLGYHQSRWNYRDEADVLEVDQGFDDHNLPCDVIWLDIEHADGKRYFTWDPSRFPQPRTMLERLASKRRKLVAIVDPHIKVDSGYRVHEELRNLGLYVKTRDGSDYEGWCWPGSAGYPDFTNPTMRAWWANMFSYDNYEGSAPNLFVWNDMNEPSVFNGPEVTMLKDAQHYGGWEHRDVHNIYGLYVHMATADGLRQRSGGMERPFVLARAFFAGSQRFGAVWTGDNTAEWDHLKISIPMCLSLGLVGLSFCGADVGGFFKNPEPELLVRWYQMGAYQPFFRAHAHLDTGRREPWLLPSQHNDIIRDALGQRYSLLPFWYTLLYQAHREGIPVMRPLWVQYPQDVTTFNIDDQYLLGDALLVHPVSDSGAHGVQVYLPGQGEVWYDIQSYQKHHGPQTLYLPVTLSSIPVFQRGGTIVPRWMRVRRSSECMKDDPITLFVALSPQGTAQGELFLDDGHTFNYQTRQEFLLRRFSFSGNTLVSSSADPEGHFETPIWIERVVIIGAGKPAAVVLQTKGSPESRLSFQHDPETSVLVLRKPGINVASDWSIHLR
Sequence (P14314 15-528 partner): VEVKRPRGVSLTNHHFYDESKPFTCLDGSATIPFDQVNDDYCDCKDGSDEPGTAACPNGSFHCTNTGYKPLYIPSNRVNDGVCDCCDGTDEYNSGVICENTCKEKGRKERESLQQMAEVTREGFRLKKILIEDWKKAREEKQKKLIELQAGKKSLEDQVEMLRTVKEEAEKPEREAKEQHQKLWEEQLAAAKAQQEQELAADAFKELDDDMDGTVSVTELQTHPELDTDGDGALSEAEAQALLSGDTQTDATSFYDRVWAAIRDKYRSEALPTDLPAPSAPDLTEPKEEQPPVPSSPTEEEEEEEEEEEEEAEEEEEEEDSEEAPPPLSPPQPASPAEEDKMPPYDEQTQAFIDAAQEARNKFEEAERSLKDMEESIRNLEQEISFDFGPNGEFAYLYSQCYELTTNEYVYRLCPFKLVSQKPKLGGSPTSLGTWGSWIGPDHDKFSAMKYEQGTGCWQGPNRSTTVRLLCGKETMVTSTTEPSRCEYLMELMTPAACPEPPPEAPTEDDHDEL
REPORTED METRIC: IC50 (nM)

Known IC50 results, listed for orientation:
SMILES: OC[C@@H]1[C@@H](O)[C@H](O)[C@@H](O)CN1CCCCCOCc1ccc(-c2ccc(F)cc2)cc1
REPORTED METRIC: IC50
OBS VALUE: 1400
--
SMILES: N#Cc1ccccc1-c1ccc(COCCCCCN2C[C@H](O)[C@@H](O)[C@H](O)[C@H]2CO)cc1
REPORTED METRIC: IC50
OBS VALUE: 1700
--
SMILES: Cc1ccc(-c2ccc(COCCCCCN3C[C@H](O)[C@@H](O)[C@H](O)[C@H]3CO)cc2)cc1
REPORTED METRIC: IC50
OBS VALUE: 1600

[I] Cc1cccc(-c2ccc(COCCCCCN3C[C@H](O)[C@@H](O)[C@H](O)[C@H]3CO)cc2)c1
[II] OC[C@@H]1[C@@H](O)[C@H](O)[C@@H](O)CN1CCCCCOCc1ccc(-c2ccc(Br)cc2)cc1
input: Which has the smaller recorded IC50, I or II ? Answer with the label corresponding to your selection.
output: II
